Biological target: TEC (Homo sapiens, UniProt P42680)
Construct: purchased Reaction Biology Corporation
Sequence (P42680 1-631): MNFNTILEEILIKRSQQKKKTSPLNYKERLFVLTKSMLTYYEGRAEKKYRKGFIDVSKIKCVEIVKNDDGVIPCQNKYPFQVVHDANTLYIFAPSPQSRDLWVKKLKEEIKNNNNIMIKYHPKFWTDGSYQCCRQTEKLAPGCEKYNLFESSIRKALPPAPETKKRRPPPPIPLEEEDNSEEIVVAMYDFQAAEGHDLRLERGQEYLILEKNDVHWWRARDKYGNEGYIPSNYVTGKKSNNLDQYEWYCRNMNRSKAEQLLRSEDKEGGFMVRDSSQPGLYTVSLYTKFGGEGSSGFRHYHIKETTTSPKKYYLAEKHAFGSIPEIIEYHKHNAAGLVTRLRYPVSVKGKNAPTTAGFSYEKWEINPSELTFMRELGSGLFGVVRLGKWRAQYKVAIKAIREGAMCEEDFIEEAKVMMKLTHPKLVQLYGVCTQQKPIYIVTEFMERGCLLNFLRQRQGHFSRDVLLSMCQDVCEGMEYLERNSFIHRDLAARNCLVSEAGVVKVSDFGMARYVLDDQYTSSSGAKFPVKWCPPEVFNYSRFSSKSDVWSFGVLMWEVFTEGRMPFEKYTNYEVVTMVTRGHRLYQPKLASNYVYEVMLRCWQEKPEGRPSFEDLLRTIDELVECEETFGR
Experiment: TEC kinase profiling (BTK protocol)
Type: biochemical
Settings: compound 0.3 μM; read-out: TEC @ 0.3 μM (% Inh)
Please note: 1 (yes) applies when inhibition at 0.3 µM is 70% or greater, and 0 (no) applies otherwise.

# structure, targetOrTestSystem, classLabel
rows = [
    ("C=CC(=O)N(CCn1nc(-c2cc(O)c(F)c(F)c2)c2c(N)ncnc21)Cc1ccc(Cl)cc1", "TEC (Homo sapiens, UniProt P42680)", "1 (yes)"),
    ("Nc1ncnc2c1c(-c1cc(O)cc(F)c1)nn2CCNc1ccccc1", "TEC (Homo sapiens, UniProt P42680)", "0 (no)"),
    ("C=CC(=O)N(CCn1nc(-c2cc(O)cc(F)c2)c2c(N)ncnc21)Cc1ccc(F)cc1", "TEC (Homo sapiens, UniProt P42680)", "0 (no)"),
    ("C=CC(=O)N(CCn1nc(-c2cc(O)cc(F)c2)c2c(N)ncnc21)Cc1ccccc1", "TEC (Homo sapiens, UniProt P42680)", "0 (no)"),
    ("C=CC(=O)N(CCn1nc(-c2cc(O)cc(F)c2)c2c(N)ncnc21)c1ccccc1", "TEC (Homo sapiens, UniProt P42680)", "1 (yes)"),
]

====

Measured IC50, listed per entry.
target: PI3Kδ (Homo sapiens, UniProt O00329)
Sequence (O00329 whole entry): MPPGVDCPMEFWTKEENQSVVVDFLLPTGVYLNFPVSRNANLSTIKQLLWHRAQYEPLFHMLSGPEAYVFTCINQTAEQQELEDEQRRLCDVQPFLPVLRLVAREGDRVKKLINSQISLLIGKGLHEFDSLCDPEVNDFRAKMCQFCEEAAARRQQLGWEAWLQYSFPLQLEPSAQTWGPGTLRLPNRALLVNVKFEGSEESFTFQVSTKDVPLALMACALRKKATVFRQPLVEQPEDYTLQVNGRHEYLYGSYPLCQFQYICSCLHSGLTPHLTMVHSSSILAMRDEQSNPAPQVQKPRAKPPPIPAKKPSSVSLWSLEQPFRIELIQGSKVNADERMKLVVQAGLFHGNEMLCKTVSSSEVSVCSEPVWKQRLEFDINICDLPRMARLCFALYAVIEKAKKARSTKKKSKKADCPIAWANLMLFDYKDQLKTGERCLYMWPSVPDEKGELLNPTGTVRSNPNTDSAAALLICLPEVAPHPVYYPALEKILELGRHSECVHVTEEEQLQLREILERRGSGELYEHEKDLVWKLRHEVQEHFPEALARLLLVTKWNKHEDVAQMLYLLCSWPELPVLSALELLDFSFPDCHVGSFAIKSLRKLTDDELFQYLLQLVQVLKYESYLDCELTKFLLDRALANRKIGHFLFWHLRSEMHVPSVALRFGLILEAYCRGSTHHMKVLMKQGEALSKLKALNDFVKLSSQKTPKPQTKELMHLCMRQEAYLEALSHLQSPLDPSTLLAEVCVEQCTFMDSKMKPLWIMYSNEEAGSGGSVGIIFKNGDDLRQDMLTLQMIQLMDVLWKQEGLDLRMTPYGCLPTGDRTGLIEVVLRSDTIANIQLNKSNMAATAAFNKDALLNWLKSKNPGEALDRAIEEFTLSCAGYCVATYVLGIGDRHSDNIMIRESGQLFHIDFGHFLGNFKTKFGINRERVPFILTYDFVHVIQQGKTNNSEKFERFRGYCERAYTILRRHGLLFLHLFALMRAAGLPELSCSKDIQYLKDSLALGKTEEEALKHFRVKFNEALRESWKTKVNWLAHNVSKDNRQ
Sequence (P27986 whole entry partner): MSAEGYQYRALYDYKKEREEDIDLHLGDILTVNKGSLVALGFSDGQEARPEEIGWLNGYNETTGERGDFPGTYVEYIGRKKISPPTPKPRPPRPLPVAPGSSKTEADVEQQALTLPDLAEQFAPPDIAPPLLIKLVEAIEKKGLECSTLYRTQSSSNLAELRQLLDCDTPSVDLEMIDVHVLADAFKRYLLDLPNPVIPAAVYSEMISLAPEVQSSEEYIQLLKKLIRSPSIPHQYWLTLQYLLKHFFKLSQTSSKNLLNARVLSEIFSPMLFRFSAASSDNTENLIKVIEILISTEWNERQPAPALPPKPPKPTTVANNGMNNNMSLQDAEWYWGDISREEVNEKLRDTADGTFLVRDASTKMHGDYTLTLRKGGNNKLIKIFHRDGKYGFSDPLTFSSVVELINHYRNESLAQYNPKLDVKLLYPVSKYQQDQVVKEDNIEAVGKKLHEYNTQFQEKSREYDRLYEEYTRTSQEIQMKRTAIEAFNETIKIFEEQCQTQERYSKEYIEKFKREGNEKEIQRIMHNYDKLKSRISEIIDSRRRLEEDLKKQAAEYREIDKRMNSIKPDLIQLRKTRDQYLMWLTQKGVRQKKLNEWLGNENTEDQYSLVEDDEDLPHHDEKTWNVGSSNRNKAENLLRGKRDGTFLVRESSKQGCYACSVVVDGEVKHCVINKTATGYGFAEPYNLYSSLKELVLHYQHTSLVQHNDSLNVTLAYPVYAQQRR

# structure, outputUnit, IC50
rows = [
    ("C=CC(=O)N(CCn1nc(-c2cc(O)cc(F)c2)c2c(N)ncnc21)c1ccccc1", "µM", 0.0516),
    ("C=CC(=O)N(CCn1nc(-c2cc(O)cc(F)c2)c2c(N)ncnc21)Cc1ccc(Cl)cc1", "µM", 0.0097),
    ("C=CC(=O)N(CCn1nc(-c2cc(O)cc(F)c2)c2c(N)ncnc21)Cc1ccccc1", "µM", 0.013),
    ("Nc1ncnc2c1c(-c1cc(O)cc(F)c1)nn2CCNc1ccccc1", "µM", 0.01),
]
